# credit: ChEMBL document CHEMBL4376834

Measured Target: UniProt:Q5TCY1
Sequence (Q5TCY1 whole entry, the tested form may be a part): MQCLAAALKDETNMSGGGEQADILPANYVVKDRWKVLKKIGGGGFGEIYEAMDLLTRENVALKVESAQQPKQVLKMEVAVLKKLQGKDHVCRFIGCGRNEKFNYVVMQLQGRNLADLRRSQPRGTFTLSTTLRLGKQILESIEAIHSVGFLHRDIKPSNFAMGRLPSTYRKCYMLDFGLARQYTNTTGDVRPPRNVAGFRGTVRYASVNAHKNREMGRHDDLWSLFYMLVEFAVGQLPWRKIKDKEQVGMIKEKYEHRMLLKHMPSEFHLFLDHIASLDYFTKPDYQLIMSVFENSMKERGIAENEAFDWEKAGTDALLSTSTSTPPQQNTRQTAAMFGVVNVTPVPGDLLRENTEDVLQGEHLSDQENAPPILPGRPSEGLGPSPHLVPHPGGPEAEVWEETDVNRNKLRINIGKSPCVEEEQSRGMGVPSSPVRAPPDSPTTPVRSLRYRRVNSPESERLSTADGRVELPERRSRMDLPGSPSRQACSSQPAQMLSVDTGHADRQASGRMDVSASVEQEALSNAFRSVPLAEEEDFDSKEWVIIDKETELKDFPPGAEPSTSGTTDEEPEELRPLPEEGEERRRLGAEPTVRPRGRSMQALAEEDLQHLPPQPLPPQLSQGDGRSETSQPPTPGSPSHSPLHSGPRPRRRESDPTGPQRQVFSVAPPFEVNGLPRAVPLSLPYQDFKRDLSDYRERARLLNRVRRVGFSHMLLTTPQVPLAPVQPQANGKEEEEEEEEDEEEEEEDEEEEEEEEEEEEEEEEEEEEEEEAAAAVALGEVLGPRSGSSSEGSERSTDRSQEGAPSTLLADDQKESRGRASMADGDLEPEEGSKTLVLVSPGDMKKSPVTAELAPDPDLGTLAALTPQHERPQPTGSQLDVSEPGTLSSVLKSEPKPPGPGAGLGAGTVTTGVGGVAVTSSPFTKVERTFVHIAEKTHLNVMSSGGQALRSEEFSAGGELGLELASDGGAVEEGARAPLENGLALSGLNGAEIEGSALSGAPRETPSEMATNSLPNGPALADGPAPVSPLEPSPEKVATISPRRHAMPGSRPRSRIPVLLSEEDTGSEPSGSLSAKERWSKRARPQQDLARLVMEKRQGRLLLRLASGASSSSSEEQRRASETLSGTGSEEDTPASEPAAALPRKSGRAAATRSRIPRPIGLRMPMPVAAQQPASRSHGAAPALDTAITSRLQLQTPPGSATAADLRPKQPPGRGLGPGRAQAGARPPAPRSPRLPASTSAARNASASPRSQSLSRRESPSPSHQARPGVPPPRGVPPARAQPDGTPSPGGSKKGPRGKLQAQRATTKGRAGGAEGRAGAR
Measurement Description: Inhibition of recombinant human TTBK1 (1 to 479 residues) using casein as substrate incubated for 40 mins in presence of [gamma33P]ATP by radiometric scintillation counting analysis
pIC50: −log10 of the molar value.

[
  {
    "Compound Structure String": "CN(C)c1ccc(C(=O)Nc2cccc(NC(=O)COc3ccc4c(=O)ccoc4c3)c2)cc1",
    "pIC50": "< 5.00"
  }
]

---

Measured Target: UniProt:P51813
Sequence (P51813 whole entry): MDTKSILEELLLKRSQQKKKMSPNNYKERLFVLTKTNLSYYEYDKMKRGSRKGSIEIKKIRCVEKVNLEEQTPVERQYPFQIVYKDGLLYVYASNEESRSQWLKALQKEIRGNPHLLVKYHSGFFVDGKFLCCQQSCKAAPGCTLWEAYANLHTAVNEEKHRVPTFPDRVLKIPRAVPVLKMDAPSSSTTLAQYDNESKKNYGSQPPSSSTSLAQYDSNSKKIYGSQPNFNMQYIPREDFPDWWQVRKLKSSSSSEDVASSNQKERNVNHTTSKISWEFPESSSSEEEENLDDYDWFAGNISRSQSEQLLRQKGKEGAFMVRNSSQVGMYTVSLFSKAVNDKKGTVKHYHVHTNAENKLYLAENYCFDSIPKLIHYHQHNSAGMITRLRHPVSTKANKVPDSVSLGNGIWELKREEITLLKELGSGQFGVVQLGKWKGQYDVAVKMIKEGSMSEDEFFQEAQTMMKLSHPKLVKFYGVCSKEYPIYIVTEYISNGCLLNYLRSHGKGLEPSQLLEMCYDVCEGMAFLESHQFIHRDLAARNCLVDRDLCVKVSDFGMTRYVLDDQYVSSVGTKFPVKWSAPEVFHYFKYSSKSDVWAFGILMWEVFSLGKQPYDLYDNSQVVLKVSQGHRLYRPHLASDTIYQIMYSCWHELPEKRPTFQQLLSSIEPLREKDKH
Measurement Description: Inhibition of recombinant full length human BMX using poly(Glu, Tyr) 4:1 as substrate incubated for 40 mins in presence of [gamma-33ATP] by radiometric scintillation counting analysis
Observed Property: IC50

[
  {
    "Compound Structure String": "CN(C)c1ccc(C(=O)Nc2cccc(NC(=O)COc3ccc4c(=O)ccoc4c3)c2)cc1",
    "Measured Target": "UniProt:P51813",
    "Observed Property": "IC50",
    "Observed Measurement": "> 10 µM"
  }
]

---

Measured Target: Protein kinase C iota type (Homo sapiens, UniProt P41743)
Sequence (P41743 whole entry): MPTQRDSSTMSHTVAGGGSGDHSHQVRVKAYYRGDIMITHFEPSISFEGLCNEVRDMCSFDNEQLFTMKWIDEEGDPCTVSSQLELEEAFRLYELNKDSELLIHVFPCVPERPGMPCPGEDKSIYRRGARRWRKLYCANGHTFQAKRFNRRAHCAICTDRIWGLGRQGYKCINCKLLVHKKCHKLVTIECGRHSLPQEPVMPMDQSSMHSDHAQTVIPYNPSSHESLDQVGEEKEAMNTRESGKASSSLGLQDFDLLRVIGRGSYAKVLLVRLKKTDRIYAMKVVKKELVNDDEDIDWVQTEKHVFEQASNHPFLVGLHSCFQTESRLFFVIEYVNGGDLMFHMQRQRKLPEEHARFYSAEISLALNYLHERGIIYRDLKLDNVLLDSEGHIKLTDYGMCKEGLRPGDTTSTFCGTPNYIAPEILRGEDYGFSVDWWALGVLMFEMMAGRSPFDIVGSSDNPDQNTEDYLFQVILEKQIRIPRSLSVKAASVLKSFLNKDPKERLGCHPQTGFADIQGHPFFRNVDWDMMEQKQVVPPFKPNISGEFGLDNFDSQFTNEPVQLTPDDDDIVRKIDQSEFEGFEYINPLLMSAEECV
Measurement Description: Inhibition of recombinant full-length human PKCiota using ERMRPRKRQGSVRR as substrate incubated for 40 mins in presence of [gamma33P]ATP by radiometric scintillation counting analysis

[
  {
    "Compound Structure String": "CN(C)c1ccc(C(=O)Nc2cccc(NC(=O)COc3ccc4c(=O)ccoc4c3)c2)cc1",
    "IC50": "> 10 µM"
  }
]

---

Measured Target: Bone morphogenetic protein receptor type-1B (Homo sapiens, UniProt O00238)
Sequence (O00238 whole entry): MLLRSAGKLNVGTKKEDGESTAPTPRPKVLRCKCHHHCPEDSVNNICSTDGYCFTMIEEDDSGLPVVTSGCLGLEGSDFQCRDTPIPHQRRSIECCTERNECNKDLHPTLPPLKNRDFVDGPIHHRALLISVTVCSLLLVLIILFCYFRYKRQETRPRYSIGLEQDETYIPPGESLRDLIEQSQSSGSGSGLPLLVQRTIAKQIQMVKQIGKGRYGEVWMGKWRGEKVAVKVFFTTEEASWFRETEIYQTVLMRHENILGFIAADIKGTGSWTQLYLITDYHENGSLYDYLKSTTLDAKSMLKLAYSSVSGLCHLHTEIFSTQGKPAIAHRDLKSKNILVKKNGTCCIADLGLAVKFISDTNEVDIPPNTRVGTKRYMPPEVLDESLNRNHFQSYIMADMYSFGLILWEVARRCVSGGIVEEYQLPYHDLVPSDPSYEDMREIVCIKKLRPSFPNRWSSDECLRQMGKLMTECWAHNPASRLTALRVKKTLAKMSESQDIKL
Measurement Description: Inhibition of human recombinant ALK6 (148 to end residues) using casein as substrate incubated for 40 mins in presence of [gamma-33P]ATP by radiometric scintillation counting analysis

[
  {
    "Compound Structure String": "CN(C)c1ccc(C(=O)Nc2cccc(NC(=O)COc3ccc4c(=O)ccoc4c3)c2)cc1",
    "IC50": "> 10 µM"
  }
]

---

Measured Target: Hepatocyte growth factor receptor (Homo sapiens, UniProt P08581, M1250T)
Measurement Description: Inhibition of recombinant human MET A1209G/V1290L/M1268T triple mutant (974 to end residues) using KKKGQEEEYVFIE as substrate incubated for 40 mins in presence of [gamma-33ATP by radiometric scintillation counting analysis

[
  {
    "Compound Structure String": "CN(C)c1ccc(C(=O)Nc2cccc(NC(=O)COc3ccc4c(=O)ccoc4c3)c2)cc1",
    "Measured Target": "Hepatocyte growth factor receptor (Homo sapiens, UniProt P08581, M1250T)",
    "IC50": "> 10 µM"
  }
]

---

Measured Target: MAP/microtubule affinity-regulating kinase 3 (Homo sapiens)
Sequence (P27448 whole entry): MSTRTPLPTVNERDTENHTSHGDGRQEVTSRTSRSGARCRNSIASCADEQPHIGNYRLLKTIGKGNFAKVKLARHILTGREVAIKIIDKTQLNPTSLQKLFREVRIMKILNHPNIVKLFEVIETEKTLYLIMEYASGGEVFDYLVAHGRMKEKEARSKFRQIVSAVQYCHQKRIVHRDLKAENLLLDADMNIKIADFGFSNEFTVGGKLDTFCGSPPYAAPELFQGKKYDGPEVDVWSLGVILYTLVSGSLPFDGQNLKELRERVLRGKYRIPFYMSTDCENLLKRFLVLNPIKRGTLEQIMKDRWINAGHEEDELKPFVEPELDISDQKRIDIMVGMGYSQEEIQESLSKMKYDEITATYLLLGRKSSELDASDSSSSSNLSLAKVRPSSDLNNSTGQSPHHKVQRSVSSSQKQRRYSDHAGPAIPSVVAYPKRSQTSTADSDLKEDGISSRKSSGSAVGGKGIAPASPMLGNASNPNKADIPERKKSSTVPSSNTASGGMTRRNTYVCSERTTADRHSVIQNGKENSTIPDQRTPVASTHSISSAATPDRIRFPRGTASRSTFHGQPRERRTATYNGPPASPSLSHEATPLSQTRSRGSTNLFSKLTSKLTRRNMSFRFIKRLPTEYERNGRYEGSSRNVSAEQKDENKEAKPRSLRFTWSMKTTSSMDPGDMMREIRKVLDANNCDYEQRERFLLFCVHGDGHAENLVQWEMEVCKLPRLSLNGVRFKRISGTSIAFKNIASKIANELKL
Measurement Description: Inhibition of recombinant full length human MARK3 using KKKVSRSGLYRSP as substrate incubated for 40 mins in presence of [gamma-33ATP by radiometric scintillation counting analysis

[
  {
    "Compound Structure String": "CN(C)c1ccc(C(=O)Nc2cccc(NC(=O)COc3ccc4c(=O)ccoc4c3)c2)cc1",
    "IC50": "> 10 µM"
  }
]

---

Measured Target: Tyrosine-protein kinase Fer (Homo sapiens)
Sequence (P16591 whole entry): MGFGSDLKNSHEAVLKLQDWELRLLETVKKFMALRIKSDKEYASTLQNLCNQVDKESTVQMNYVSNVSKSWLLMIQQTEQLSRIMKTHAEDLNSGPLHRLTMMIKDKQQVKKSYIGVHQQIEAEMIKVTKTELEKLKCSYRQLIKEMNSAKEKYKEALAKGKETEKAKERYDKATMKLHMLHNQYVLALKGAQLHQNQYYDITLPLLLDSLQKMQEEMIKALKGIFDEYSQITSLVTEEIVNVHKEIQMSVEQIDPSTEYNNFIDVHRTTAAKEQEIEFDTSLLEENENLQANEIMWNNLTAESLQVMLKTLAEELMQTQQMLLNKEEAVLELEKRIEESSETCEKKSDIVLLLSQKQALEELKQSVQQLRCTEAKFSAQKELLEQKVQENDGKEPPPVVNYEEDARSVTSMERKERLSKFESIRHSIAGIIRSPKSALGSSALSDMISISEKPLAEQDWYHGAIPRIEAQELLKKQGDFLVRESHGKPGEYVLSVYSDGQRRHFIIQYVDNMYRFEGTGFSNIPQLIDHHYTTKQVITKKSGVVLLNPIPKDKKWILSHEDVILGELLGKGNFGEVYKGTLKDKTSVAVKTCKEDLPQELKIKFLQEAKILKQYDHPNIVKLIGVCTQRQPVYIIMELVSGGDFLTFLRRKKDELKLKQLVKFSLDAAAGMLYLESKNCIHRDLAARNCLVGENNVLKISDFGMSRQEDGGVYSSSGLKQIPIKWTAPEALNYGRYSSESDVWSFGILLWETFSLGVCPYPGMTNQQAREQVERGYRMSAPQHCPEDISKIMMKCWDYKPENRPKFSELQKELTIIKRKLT
Measurement Description: Inhibition of recombinant human FER (541 to end residues) using KKKSPGEYVNIEF as substrate after 40 mins in presence of [gamma-33ATP] by radiometric scintillation counting analysis
pIC50: −log10 of the molar value.
Observed Property: pIC50

[
  {
    "Compound Structure String": "CN(C)c1ccc(C(=O)Nc2cccc(NC(=O)COc3ccc4c(=O)ccoc4c3)c2)cc1",
    "Measured Target": "Tyrosine-protein kinase Fer (Homo sapiens)",
    "Observed Property": "pIC50",
    "Observed Measurement": "< 5.00"
  }
]
